# TEST_METHOD_NOTES: gradient 5% acetonitrile 3 min, to 50% in 2 min, to 85% in 15 min, held 3 min, 100 µL/min
# SETUP_CONDITIONS: column: Zorbax Extend-C18 2.1 x 50 mm; eluents: water / acetonitrile, 0.1% formic acid
The following molecules are listed with their measured RP-LC retention time values.
ENDPOINT_NAME: RP-LC retention time (s)

| MOLECULE | ENDPOINT_NAME | VALUE_OBSERVED |
| --- | --- | --- |
| O=C(NCC1CCN(c2ncccn2)CC1)C(=O)NCC(F)(F)F | RP-LC retention time | 626 |
| O=C(NC1CCCCCC1)c1ccc2ccnc(N3CCN(c4ccccc4F)CC3)c2c1 | RP-LC retention time | 973 |
| CC(=O)Nc1cccc(C2=NN(C(C)=O)C(c3ccc4nccnc4c3)C2)c1 (stereo not drawn) | RP-LC retention time | 617 |
| Cc1ccc2[nH]cc(CCN3CC(C(=O)Nc4cccc(Br)c4)CC3=O)c2c1 (stereo not drawn) | RP-LC retention time | 911 |
| CCOc1ccc(S(=O)(=O)N(CC(=O)N2CCNCC2)CC2CCCN2CC)cc1 (stereo not drawn) | RP-LC retention time | 585 |
| CC(C)N1C(=O)c2cccnc2Sc2cc(NC(=O)c3ccco3)ccc21 | RP-LC retention time | 776 |
| NC(=O)C1CCN(C(=O)CCCc2nc3cccnc3n2Cc2ccc(F)cc2)CC1 | RP-LC retention time | 602 |
| COc1ccc(NC(=O)Cn2c(=O)n(-c3ccccc3)c(=O)c3c2cc(C)n3C)cc1Cl | RP-LC retention time | 842 |
| Cc1ccc(Cl)cc1NC(=O)CSc1ccc(N2CCCC(C(=O)NC3CC3)C2)nn1 (stereo not drawn) | RP-LC retention time | 698 |
| CCOCCCNC(=O)C1c2ccccc2C(=O)N(C)C1c1cccs1 (stereo not drawn) | RP-LC retention time | 722 |
| O=C(Cc1ccccc1Cl)Nc1cnc(N2CCCC2)nc1 | RP-LC retention time | 604 |
| CCC(=O)N1CCc2cc(C(=O)N3CCN(c4ccc(C(C)=O)cc4)CC3)ccc21 | RP-LC retention time | 736 |
| C=CCn1c(=O)c2ccccc2n(Cc2nc(-c3cc(OC)cc(OC)c3)no2)c1=O | RP-LC retention time | 1020 |

====

# TEST_METHOD_NOTES: gradient 5% acetonitrile 3 min, to 50% in 2 min, to 85% in 15 min, held 3 min, 100 µL/min
# SETUP_CONDITIONS: column: Zorbax Extend-C18 2.1 x 50 mm; eluents: water / acetonitrile, 0.1% formic acid
Recorded RP-LC retention time determines the group label, using Low = under 600 s, Medium = from 600 s up to 900 s, High = 900 s and over

| MOLECULE | DISCRETE_LABEL |
| --- | --- |
| Cc1noc(CN2CCN(C3CCN(Cc4cc(F)ccc4F)C3)C2=O)n1 (stereo not drawn) | Low |
| CCCNC(=O)C1CCCN(c2ccc(SCC(=O)NCc3ccccc3)nn2)C1 (stereo not drawn) | Medium |
| CCOc1ccc(NS(=O)(=O)c2cc(-c3c(C)noc3NC(C)=O)ccc2OC)cc1 | Medium |
| COc1cccc(Cn2cnc3c(-c4ccc(OC)c(OC)c4)csc3c2=O)c1 | High |
| COc1ccc(C2CN(S(=O)(=O)c3cccc(C#N)c3)CCN2C)cc1 (stereo not drawn) | Low |
| CCOC(=O)C1CCC(CNC(=O)Nc2ccc(-c3nc(-c4ccccc4)co3)cc2)CC1 (stereo not drawn) | High |
| O=C(NCc1cccnc1)C1CCN(Cc2cc3ccccc3n2Cc2cccc(Cl)c2)CC1 | Medium |
| O=C(O)c1nn(Cc2ccc(Cl)cc2Cl)c2ccccc12 | High |
| COCCC(=O)N1CCc2c(c(-c3nc(C4CC4)no3)nn2C)C1 | Medium |
| O=C(CN1C(=O)CN(C(=O)Nc2ccccc2)c2ccccc21)N1CCCc2ccccc21 | High |

====

Quick reference: RP-LC retention time of the listed items.
# TEST_METHOD_NOTES: gradient 5% acetonitrile 3 min, to 50% in 2 min, to 85% in 15 min, held 3 min, 100 µL/min
# SETUP_CONDITIONS: column: Zorbax Extend-C18 2.1 x 50 mm; eluents: water / acetonitrile, 0.1% formic acid

| MOLECULE | RP-LC retention time |
| --- | --- |
| Cn1c(=O)sc2cc(S(=O)(=O)N3CCC(C(=O)NCc4ccccc4)CC3)ccc21 | 851 s |
| CC(NC(=O)C1CCN(c2cncnc2N2CCCC2)CC1)c1ccc(F)cc1 (stereo not drawn) | 648 s |
| CC(C)Oc1ccc(C(=O)Nc2nc(-c3cccnc3)cs2)cc1 | 660 s |
| Cc1cc(C)c(C(=O)N2CCC(CC(=O)NCc3ccc(F)cc3)CC2)[nH]1 | 759 s |
| c1ccc(-c2n[nH]c(-c3ccccn3)n2)nc1 | 645 s |
| CCCN(Cc1ccc(OCC)cc1)Cc1cc(=O)n2cc(Cl)ccc2n1 | 686 s |
| CCS(=O)(=O)N1CC(=O)N(c2ccc(C)c(C)c2)C(C)(C(=O)NCc2ccccc2)C1 (stereo not drawn) | 860 s |
| Cn1nc(-c2ccccc2)nc1C1CN(C(=O)Nc2ccccc2C(F)(F)F)C1 | 807 s |
| Cc1ccc(S(=O)(=O)NCC(c2cccnc2)c2cn(C)c3ccccc23)cc1C (stereo not drawn) | 790 s |
| Cc1cccc(Cn2c(=O)n(CCNC(=O)c3cccn3C)c3ncccc32)c1 | 826 s |
| Cc1nc(C2(C)CCN(S(=O)(=O)c3ccccc3Cl)CC2)no1 | 911 s |
| COc1ccc(-c2noc(CN3N=NC4C(=O)N(c5ccc(C)c(Cl)c5)C(=O)C43)n2)c(OC)c1 (stereo not drawn) | 974 s |
| CC(C)Oc1ccc(CNC(=O)C2CCCN(c3ccc(=O)n(-c4ccc(F)cc4)n3)C2)cc1 (stereo not drawn) | 900 s |

====

# TEST_METHOD_NOTES: gradient 5% acetonitrile 3 min, to 50% in 2 min, to 85% in 15 min, held 3 min, 100 µL/min
# SETUP_CONDITIONS: column: Zorbax Extend-C18 2.1 x 50 mm; eluents: water / acetonitrile, 0.1% formic acid

| MOLECULE | RP-LC retention time, s |
| --- | --- |
| CCOC(=O)N1CCC2(CC1)N=C(c1ccc(OCC)cc1)CC(c1cc(Cl)ccc1O)N2 (configuration not stated) | 726 |
| COc1ccccc1CCNC(=O)CSC1CCc2ccccc2NC1=O (configuration not stated) | 784 |
| O=C(CCCn1c(=O)c2cccn2c2ccc(F)cc21)NCCCN1CCOCC1 | 603 |
| COCCNC(=O)CC1CCN(C(=O)c2cc3cc(Cl)ccc3[nH]2)CC1 | 701 |
| Cc1c(-c2nnc(C(=O)NCCCN3CCCCCC3)o2)oc2ccccc12 | 674 |
| NC(=O)C1=C(N)c2ccccc2C1c1ccccc1 (configuration not stated) | 822 |
| O=C(Cn1c(Cc2ccccc2)nc2ccccc21)N1CCCCC1 | 667 |

====

Recorded measurements of RP-LC retention time, one per entry
# TEST_METHOD_NOTES: gradient 5% acetonitrile 3 min, to 50% in 2 min, to 85% in 15 min, held 3 min, 100 µL/min
# SETUP_CONDITIONS: column: Zorbax Extend-C18 2.1 x 50 mm; eluents: water / acetonitrile, 0.1% formic acid

| COMPOUND | RP-LC retention time (s) |
| --- | --- |
| CCn1cc(C)c(C(=O)O)c1CC(=O)Nc1cccc(C)n1 | 678 |
| CCOc1ccccc1NC(=O)C1CCN(S(C)(=O)=O)c2cc(C)ccc2O1 (stereo not drawn) | 830 |
| CCOc1ccc(-c2noc(Cc3nc(-c4ccc(C)cc4)cs3)n2)cc1 | 1320 |
| CCCOc1ccc(-c2nc(N3CCCCC3)c3ccccc3n2)cc1 | 930 |
| Cc1nnc(CNC(=O)CCn2nnc3ccccc3c2=O)o1 | 566 |
| Nc1nc(N2CCOCC2)ncc1C(=O)NCc1ccccc1 | 609 |
| Cc1cc(C)n(-c2ccc(C(=O)NCc3nc4ccccc4[nH]3)nn2)n1 | 564 |
| COc1ccc(N2CC(c3nc(-c4ccccc4Cl)no3)CC2=O)cc1 (stereo not drawn) | 926 |
| Cc1cc(Cl)ccc1S(=O)(=O)N1CC(c2nc(Cc3ccccc3)no2)C1 | 1140 |
| COc1ccc(NC(=O)CSc2cc(N3CCN(c4ccccc4OC)CC3)ncn2)cc1Cl | 981 |
| CCc1ccc(NC(=O)C2(C)Oc3cccnc3N(C(C)C)C2=O)cc1 (stereo not drawn) | 1120 |
| COc1ccc(-c2ncc3c(n2)CCN(S(=O)(=O)c2ccccc2C)C3)cc1 | 1070 |
| c1ccc(-c2cccc(-c3ccccn3)n2)nc1 | 608 |
| Cc1cc(NC(=O)C2CCN(c3ccc(-c4cccs4)nn3)CC2)sn1 | 604 |
| CCCS(=O)(=O)N1CCc2c(c(CN(C(C)=O)c3ccccc3)nn2C)C1 | 707 |
| Cc1ccccc1C(=O)N1CCN(CC(F)(F)F)CC1 | 752 |
| Cc1noc([C@@H]2CN(S(=O)(=O)c3c(C)noc3C)C[C@H]2C(N)=O)n1 | 667 |
| CCn1cc(S(=O)(=O)N2CCCn3nc(-c4ccncc4)cc3C2)cn1 | 577 |
| Cc1oc(-c2[nH]ncc2C(=O)N2CCOCC2)cc1S(=O)(=O)Nc1ccc(F)cc1 | 669 |
| CCc1cc(C(=O)Nc2ccc(F)cc2)nc2ccnn12 | 997 |
| Cc1cc2nc(-c3ccccn3)c(-c3ccccn3)nc2cc1C | 797 |
| Cn1c(N2CCN(S(=O)(=O)c3cc(F)ccc3F)CC2)nc2ccccc21 | 601 |
| O=C(NCc1ccccn1)C1CCN(c2cc(N3CCCCC3)ncn2)CC1 | 558 |
| O=C(Nc1nc(-c2ccccc2)cs1)Oc1ccccc1 | 1030 |
| COc1ccccc1N1CCN(CCN(C(=O)c2ccc(F)cc2)c2ccccn2)CC1 | 792 |
| CCOC(=O)C1CCN(C(=O)Cn2c3ccccc3c3cnn(C)c(=O)c32)CC1 | 775 |
| Cc1ccc(-n2nnnc2CNC(=O)c2cc(Br)ccc2Cl)cc1 | 835 |
| Fc1ccc(-c2nnc(Cc3nc(-c4cccc(F)c4)no3)o2)cc1 | 990 |
